Attribution: the supplement of paper PMC10724198

For each of the sequences below, state its protein stability index.
test system: Saccharomyces cerevisiae; experiment: protein stability index of tFT-peptide fusion (C-terminal peptide) (PSI (0-1 scale)); higher = more stable (slower turnover); details: genetic background: wild type; temperature: 30 C
// response body must contain only the number

Complete the entry with protein stability index for PPSPPPGTCPPD 0.617

Complete the entry with protein stability index for RNRNDRIKKLKR 0.667

Complete the entry with protein stability index for EGHREARGGMAR 0.673

Complete the entry with protein stability index for SWFVGFDGAVGG 0.774

Complete the entry with protein stability index for IGWCRLRDRLVS 0.556

Complete the entry with protein stability index for PLPAFPRLAIQP 0.691

Complete the entry with protein stability index for GGGVLLRGGSGP 0.716

Complete the entry with protein stability index for SLSDYKAYSKTI 0.65

Complete the entry with protein stability index for PPNPLPPAFTPP 0.715

Complete the entry with protein stability index for LKKSEKLSNKII 0.644

Complete the entry with protein stability index for RPAAPGSKGDDN 0.7

Complete the entry with protein stability index for TYSERADLCAQL 0.678

Complete the entry with protein stability index for TPRAALVVSPLV 0.748

Complete the entry with protein stability index for PPPPPSPPLSPI 0.728

Complete the entry with protein stability index for TPVIPLIRVRDC 0.29

Complete the entry with protein stability index for TFSFSRPPLPPA 0.685

Complete the entry with protein stability index for WGAHRVRVSRIL 0.509

Complete the entry with protein stability index for AFFLVLSAFRWI 0.541

Complete the entry with protein stability index for HRRGRVAQFAIS 0.644

* * *

tested on: Saccharomyces cerevisiae; experiment: protein stability index of tFT-peptide fusion (C-terminal peptide) (PSI (0-1 scale)); higher = more stable (slower turnover); details: genetic background: cdc34-1; temperature: 37 C
Hi, to clarify the labels: rule met covers protein stability index from 0.4 upward, rule not met covers anything below 0.4.

Reported protein stability index reaches at least 0.4 for LVFRVSLVEVVL ? rule not met

Reported protein stability index reaches at least 0.4 for LGWFVDFVFVVW ? rule not met

Reported protein stability index reaches at least 0.4 for LLQCRTGLASGR ? rule met

Reported protein stability index reaches at least 0.4 for FFVWGVFLGVSW ? rule not met

Reported protein stability index reaches at least 0.4 for RICACHGIRFIP ? rule met

Reported protein stability index reaches at least 0.4 for VYEVELSVRVTV ? rule met

Reported protein stability index reaches at least 0.4 for LPCPPSPASLPR ? rule met

Reported protein stability index reaches at least 0.4 for AFPVGFLVGLVV ? rule met

Reported protein stability index reaches at least 0.4 for GSLVLSCLMSRA ? rule met

Reported protein stability index reaches at least 0.4 for ATLWVWCFSSHV ? rule met

Reported protein stability index reaches at least 0.4 for RHAHPLTAQLPL ? rule met

Reported protein stability index reaches at least 0.4 for RNFSFTVICLAM ? rule met

Reported protein stability index reaches at least 0.4 for VVMASSIIVVAG ? rule not met

Reported protein stability index reaches at least 0.4 for GEVLWAVLLVSC ? rule not met

Reported protein stability index reaches at least 0.4 for VLAYFCYVVFVI ? rule not met

Reported protein stability index reaches at least 0.4 for LCFLVLLSLLLL ? rule met

Reported protein stability index reaches at least 0.4 for SLFFCIPIHSVF ? rule met

Reported protein stability index reaches at least 0.4 for LFTVCMIIQMVH ? rule not met

Reported protein stability index reaches at least 0.4 for VVVLFGRLVVIC ? rule met

Reported protein stability index reaches at least 0.4 for VFFVLIFLLFLF ? rule met

Reported protein stability index reaches at least 0.4 for RIFWMFFSQHIG ? rule met

Reported protein stability index reaches at least 0.4 for VVFWFPFVLRCC ? rule not met

Reported protein stability index reaches at least 0.4 for KVGPVLLLCRRS ? rule met

Reported protein stability index reaches at least 0.4 for IIGCIAICLMVN ? rule not met

Reported protein stability index reaches at least 0.4 for NFFLLFFFFLSF ? rule met

Reported protein stability index reaches at least 0.4 for GVVCCGFFFLVV ? rule met

Reported protein stability index reaches at least 0.4 for FVSFFRWLLVSI ? rule not met

Reported protein stability index reaches at least 0.4 for FILCGFSVVLIG ? rule not met

Reported protein stability index reaches at least 0.4 for RWRYHAYVITIL ? rule not met

Reported protein stability index reaches at least 0.4 for VYCTFLFAYTLP ? rule met

Reported protein stability index reaches at least 0.4 for GCLFASWPLAVC ? rule not met

Reported protein stability index reaches at least 0.4 for VRLLLIFRLLVI ? rule met

Reported protein stability index reaches at least 0.4 for FGEDFCHLLWCC ? rule met

Reported protein stability index reaches at least 0.4 for EFFILYFFLKVL ? rule not met

Reported protein stability index reaches at least 0.4 for RRIKNRRLKQVT ? rule met

Reported protein stability index reaches at least 0.4 for VFMTLHCITIYK ? rule met

Reported protein stability index reaches at least 0.4 for VCVFNLTLVGTH ? rule met

Reported protein stability index reaches at least 0.4 for EWVWVVFSCVSW ? rule not met

Reported protein stability index reaches at least 0.4 for RVTEYHTKYKIV ? rule met

* * *

system: Saccharomyces cerevisiae; assay: protein stability index of tFT-peptide fusion (C-terminal peptide) (PSI (0-1 scale)); higher = more stable (slower turnover); conditions: genetic background: das1 deletion; temperature: 30 C
Hi, to clarify the labels: 1 covers protein stability index from 0.7 upward, 0 covers anything below 0.7.

Reported protein stability index reaches at least 0.7 for ALPLPDEDDADL [GSP1 C-terminal 12 aa] ? 0

Reported protein stability index reaches at least 0.7 for ETPSQTSQEATQ [ERG6 C-terminal 12 aa] ? 1

Reported protein stability index reaches at least 0.7 for SKGSPINTQYVF [AGA2 C-terminal 12 aa] ? 1

Reported protein stability index reaches at least 0.7 for RGENGQFWIGTK [BNI5 C-terminal 12 aa] ? 1

Reported protein stability index reaches at least 0.7 for CVKVQQFSVIVL [YDR193W C-terminal 12 aa] ? 0

Reported protein stability index reaches at least 0.7 for TFEELWNGVEGI [ARH1 C-terminal 12 aa] ? 1

Reported protein stability index reaches at least 0.7 for SNKKLKSQWLIK [EMC1 C-terminal 12 aa] ? 1

Reported protein stability index reaches at least 0.7 for SIFIASLLLAIV [FLO10 C-terminal 12 aa] ? 0

Reported protein stability index reaches at least 0.7 for QMICPSLLGIRN [YHR130C C-terminal 12 aa] ? 1

Reported protein stability index reaches at least 0.7 for MSNSNSVCCTLM [STE18 C-terminal 12 aa] ? 1

Reported protein stability index reaches at least 0.7 for LVHIKMENGIVS [IZH2 C-terminal 12 aa] ? 0

Reported protein stability index reaches at least 0.7 for ALFKAAGGKIKK [YLF2 C-terminal 12 aa] ? 0

Reported protein stability index reaches at least 0.7 for LLLQKSGTYLLL [ARV1 C-terminal 12 aa] ? 0

* * *

test system: Saccharomyces cerevisiae; experiment: protein stability index of tFT-peptide fusion (C-terminal peptide) (PSI (0-1 scale)); higher = more stable (slower turnover); settings: genetic background: wild type; temperature: 30 C
Hi, to clarify the labels: Fulfilled covers protein stability index from 0.7 upward, Not fulfilled covers anything below 0.7.

Reported protein stability index reaches at least 0.7 for SGASPSPPRTLS ? Fulfilled

Reported protein stability index reaches at least 0.7 for ETKEAKKKTIDS ? Fulfilled

Reported protein stability index reaches at least 0.7 for PLILFLSLSRSV ? Not fulfilled

Reported protein stability index reaches at least 0.7 for LLGSRFVLIRSL ? Not fulfilled

Reported protein stability index reaches at least 0.7 for FRLQQGCSRHVG ? Not fulfilled

Reported protein stability index reaches at least 0.7 for CSCSTFWFFFGR ? Fulfilled

Reported protein stability index reaches at least 0.7 for WSFYVVGRLLVN ? Not fulfilled

Reported protein stability index reaches at least 0.7 for PSLRPPPLPPLS ? Fulfilled

* * *

system: Saccharomyces cerevisiae; assay: protein stability index of tFT-peptide fusion (C-terminal peptide) (PSI (0-1 scale)); higher = more stable (slower turnover); settings: genetic background: das1 deletion; temperature: 30 C
Measurement Type: protein stability index
// response body must contain only the number

State protein stability index (Saccharomyces cerevisiae) of SLRYRFLSFFFL . 0.636

State protein stability index (Saccharomyces cerevisiae) of AAFLGVLCWCWG . 0.363

State protein stability index (Saccharomyces cerevisiae) of EFEIALTLIRSI . 0.593

State protein stability index (Saccharomyces cerevisiae) of WSVCLLLLGRFC . 0.455

State protein stability index (Saccharomyces cerevisiae) of CVPAPCGRASCR . 0.64

State protein stability index (Saccharomyces cerevisiae) of HRPRPLLKLLAS . 0.585

State protein stability index (Saccharomyces cerevisiae) of CTLVFLFFDLCS . 0.333

State protein stability index (Saccharomyces cerevisiae) of FILLIFLSLLSP . 0.294

State protein stability index (Saccharomyces cerevisiae) of ALFVGVVLLVCW . 0.177

State protein stability index (Saccharomyces cerevisiae) of VFFFFSLVNFRV . 0.459

State protein stability index (Saccharomyces cerevisiae) of RVTEYHTKYKIV . 0.656

State protein stability index (Saccharomyces cerevisiae) of RVFLVLFLILSG . 0.287

State protein stability index (Saccharomyces cerevisiae) of SLARPGLCFVIA . 0.356

State protein stability index (Saccharomyces cerevisiae) of VICVVLSKVFLF . 0.495

State protein stability index (Saccharomyces cerevisiae) of CSLRGLFLVVSV . 0.289

State protein stability index (Saccharomyces cerevisiae) of SLTHTPLGVTRT . 0.641

State protein stability index (Saccharomyces cerevisiae) of CVMWFLLSAYYL . 0.265

State protein stability index (Saccharomyces cerevisiae) of RRQLVLVLSWVI . 0.346

State protein stability index (Saccharomyces cerevisiae) of GFIRVRHLRSLC . 0.645
